# Test system: P388 leukemia ip, CD2F1 mice, survival T/C
# method summary: NCI In Vivo Anticancer Drug Screen. Data for tumor model P388 Leukemia (intraperitoneal) in CD2F1 (CDF1) mice
# test settings: endpoint: median survival time; dose: 100.0 mg/kg/injection; schedule: Q01DX005 (ip); vehicle: saline + Tween-80 + alcohol; higher = longer survival
Toxic doses and inconclusive results are not listed.
reported metric: T/C

>>> result("CCB1OCC(C2OC(=O)C3OB(CC)OC32)O1 (configuration not stated)")
"101 % of control"
>>> result("O=C(CNSc1ccc([N+](=O)[O-])cc1[N+](=O)[O-])OCc1ccccc1")
"106 % of control"
>>> result("Cc1cc(C2(O)CCCc3ccccc32)[n+]([O-])cc1C (configuration not stated)")
"104 % of control"
>>> result("O=C(OCCN1C(=O)C2C3C=CC(C3)C2C1=O)C1C2C=CC(C2)C1C(=O)OCCN1C(=O)C2C3C=CC(C3)C2C1=O (configuration not stated)")
"105 % of control"
>>> result("NC(=O)c1ccc(N=Nc2c(O)c3ccccc3[nH]c2=O)cc1")
"93 % of control"

Answer with the recorded T/C of CNC(=O)N(N=O)c1[nH]c(=O)ncc1Br only.
108 % of control

Output T/C of CO/C1=C\C(C)=C\C(C)C(O)C(C)C/C(C)=C/C=C/C(OC)C(C(C)C(O)C(C)C(=O)/C=C/C(C)C(C)O)OC1=O (configuration not stated)
94 % of control

* * *

# System: P388 leukemia ip, CD2F1 mice, survival T/C
# method summary: NCI In Vivo Anticancer Drug Screen. Data for tumor model P388 Leukemia (intraperitoneal) in CD2F1 (CDF1) mice
# test settings: endpoint: median survival time; dose: 25.0 mg/kg/injection; schedule: Q04DX003 (ip); vehicle: saline; higher = longer survival
Toxic doses and inconclusive results are not listed.
Entries and their measured T/C follow.

// below: answered molecules
>>> result("CCN(CC)CCCNc1cnc2ccc(OC)cc2n1")
"94 % of control"
>>> result("COC(/C=N/O)c1ccccc1 (centres undefined)")
"109 % of control"
>>> result("CN(C)C1CC2CCCCC2CC1O (centres undefined)")
"93 % of control"
>>> result("CC(C#N)C(N)=O (centres undefined)")
"105 % of control"
>>> result("CCN(CC)CCNC(=O)c1nn(-c2ccccc2)c2c1CCc1ccccc1-2")
"100 % of control"

Kindly consider the entry below.
Tell me T/C of CCOC(=O)[C]1([Bi]([CH3])[CH3])N=NC(C(=O)OC)=C1C(=O)OC (centres undefined) when tested on P388 leukemia ip, CD2F1 mice, survival T/C.
93 % of control

* * *

# System: P388 leukemia ip, CD2F1 mice, survival T/C
# method summary: NCI In Vivo Anticancer Drug Screen. Data for tumor model P388 Leukemia (intraperitoneal) in CD2F1 (CDF1) mice
# test settings: endpoint: median survival time; dose: 25.0 mg/kg/injection; schedule: Q04DX003 (ip); vehicle: saline with Tween-80
Toxic doses and inconclusive results are not listed. The calls were made as follows: active = survival T/C of 150% or more; inactive = T/C below 125% in these data.
API: response.call in 1 (active), 0 (inactive)

Solved entries:
>>> assigned_class("Cn1c(=O)c2[nH]c(CN(CCCl)CCCl)nc2n(C)c1=O")
1
>>> assigned_class("Cc1ccccc1S(=O)(=O)F")
0
>>> assigned_class("CN(C)C(=O)Nc1cccc(OC(=O)Nc2ccccc2)c1")
0
>>> assigned_class("CC1C(=O)c2cc3c(cc2CCN(C)Cc2c1ccc1c2OCO1)OCO3 (stereo unspecified)")
0
>>> assigned_class("Cc1cc2c(C(C)C)c(O)c(O)cc2c(O)c1-c1c(C)cc2c(C(C)C)c(O)c(O)cc2c1O")
0

Consider the additional molecule presented here.
What was the test verdict on C[n+]1c(-c2ccccc2)c2cc(N)ccc2c2ccc(N)cc21 ?
0
